- Target Or System: DNA (cytosine-5)-methyltransferase 3A (Homo sapiens, UniProt Q9Y6K1)
- Sequence (Q9Y6K1 whole entry, looked up, the tested form may be a part): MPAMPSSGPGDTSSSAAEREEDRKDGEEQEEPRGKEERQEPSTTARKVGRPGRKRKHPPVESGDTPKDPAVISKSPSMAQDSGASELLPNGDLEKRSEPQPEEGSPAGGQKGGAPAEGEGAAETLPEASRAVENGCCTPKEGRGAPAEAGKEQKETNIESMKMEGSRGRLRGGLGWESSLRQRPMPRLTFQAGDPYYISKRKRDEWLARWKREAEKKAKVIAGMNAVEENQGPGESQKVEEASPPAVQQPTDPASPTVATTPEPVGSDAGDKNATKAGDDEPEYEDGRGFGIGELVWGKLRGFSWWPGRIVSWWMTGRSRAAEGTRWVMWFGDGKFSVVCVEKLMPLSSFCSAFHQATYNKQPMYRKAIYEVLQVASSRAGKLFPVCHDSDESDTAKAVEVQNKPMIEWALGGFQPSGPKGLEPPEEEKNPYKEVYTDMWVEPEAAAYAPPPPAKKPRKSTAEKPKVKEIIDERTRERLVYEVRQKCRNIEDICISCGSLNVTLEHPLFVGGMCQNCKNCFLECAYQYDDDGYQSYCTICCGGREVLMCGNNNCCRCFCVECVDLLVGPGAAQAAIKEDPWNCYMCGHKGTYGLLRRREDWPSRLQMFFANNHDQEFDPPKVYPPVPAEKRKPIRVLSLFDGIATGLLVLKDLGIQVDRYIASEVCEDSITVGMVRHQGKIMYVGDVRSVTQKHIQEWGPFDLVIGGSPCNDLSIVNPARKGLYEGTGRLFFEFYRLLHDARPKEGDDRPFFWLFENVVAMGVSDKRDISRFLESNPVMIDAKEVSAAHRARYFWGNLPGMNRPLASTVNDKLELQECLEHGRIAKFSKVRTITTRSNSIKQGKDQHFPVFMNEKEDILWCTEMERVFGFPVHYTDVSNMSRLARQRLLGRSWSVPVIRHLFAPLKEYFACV
- Measurement Description: Inhibition of human DNMT3A catalytic domain using AdoMet assessed as reduction of methylation in 5'-biotin/3' 6-carboxyfluorescein labeled DNA duplex at CpG site at 32 uM after 1 hr by fluorescence assay relative to control
Entry flag: true (1) if inhibition reaches 70%; false (0) if it does not.

> print(dat)
                            smiles.notation                          target.or.system  group.label
1  Cc1cc(NCCN2CCC(COc3ccc4c(NCCCc5ccccc5)ncnc4c3)CC2)c2ccccc2n1  DNA (cytosine-5)-methyltransferase 3A (Homo sapiens, UniProt Q9Y6K1)     true (1)

QUERY: Reported inhibition reaches at least 70% for FC(F)(F)c1ccc2c(NCCN3CCC(COc4ccc5c(NCCCc6ccccc6)ncnc5c4)CC3)ccnc2c1 ?
RESULT: false (0)

QUERY: Reported inhibition reaches at least 70% for CN(CCN1CCC(COc2ccc3c(NCCCc4ccccc4)ncnc3c2)CC1)c1ccnc2ccccc12 ?
RESULT: false (0)

QUERY: Reported inhibition reaches at least 70% for c1ccc(CCCNc2ncnc3cc(OCC4CCN(CCNc5ccnc6ccccc56)CC4)ccc23)cc1 ?
RESULT: true (1)

----------
- Target Or System: DNA (cytosine-5)-methyltransferase 3A (Homo sapiens, UniProt Q9Y6K1)
- Measurement Description: Inhibition of human DNMT3A catalytic domain using AdoMet assessed as reduction of methylation in 5'-biotin/3' 6-carboxyfluorescein labeled DNA duplex at CpG site at 10 uM after 1 hr by fluorescence assay relative to control
Measurement Label: inhibition (%)
Dear colleague, please return just the value in %, with no unit written.

Example cases with answers are listed next.
> print(dat)
                            smiles.notation  measurement.label  assay.value
1  c1ccc(CCCNc2ncnc3cc(OCC4CCN(CCNc5cccc6cnccc56)CC4)ccc23)cc1         inhibition            0
2  Fc1ccc2nccc(NCCN3CCC(COc4ccc5c(NCCCc6ccccc6)ncnc5c4)CC3)c2c1         inhibition            0
3  Cc1cc(NCCN2CCC(COc3ccc4c(NCCCc5ccccc5)ncnc4c3)CC2)c2cccc(C)c2n1         inhibition           81
4  c1ccc(-c2ccc(CNc3ncnc4cc(OCC5CCN(CCNc6ccnc7ccccc67)CC5)ccc34)cc2)cc1         inhibition           86

QUERY: Look up inhibition for this molecule: Clc1cccc(CCNc2ncnc3cc(OCC4CCN(CCNc5ccnc6ccccc56)CC4)ccc23)c1
RESULT: 84

QUERY: Look up inhibition for this molecule: c1ccc(CCCNc2ncnc3cc(OCC4CCN(CCNc5ccc6ncccc6c5)CC4)ccc23)cc1
RESULT: 47

QUERY: Look up inhibition for this molecule: CN(C)c1ccc(NCCN2CCC(COc3ccc4c(NCCCc5ccccc5)ncnc4c3)CC2)c2ccccc12
RESULT: 66

QUERY: Look up inhibition for this molecule: FC(F)(F)c1ccc2c(NCCN3CCC(COc4ccc5c(NCCCc6ccccc6)ncnc5c4)CC3)ccnc2c1
RESULT: 0

----------
- Target Or System: DNA (cytosine-5)-methyltransferase 1 (Homo sapiens, UniProt P26358)
- Sequence (P26358 whole entry): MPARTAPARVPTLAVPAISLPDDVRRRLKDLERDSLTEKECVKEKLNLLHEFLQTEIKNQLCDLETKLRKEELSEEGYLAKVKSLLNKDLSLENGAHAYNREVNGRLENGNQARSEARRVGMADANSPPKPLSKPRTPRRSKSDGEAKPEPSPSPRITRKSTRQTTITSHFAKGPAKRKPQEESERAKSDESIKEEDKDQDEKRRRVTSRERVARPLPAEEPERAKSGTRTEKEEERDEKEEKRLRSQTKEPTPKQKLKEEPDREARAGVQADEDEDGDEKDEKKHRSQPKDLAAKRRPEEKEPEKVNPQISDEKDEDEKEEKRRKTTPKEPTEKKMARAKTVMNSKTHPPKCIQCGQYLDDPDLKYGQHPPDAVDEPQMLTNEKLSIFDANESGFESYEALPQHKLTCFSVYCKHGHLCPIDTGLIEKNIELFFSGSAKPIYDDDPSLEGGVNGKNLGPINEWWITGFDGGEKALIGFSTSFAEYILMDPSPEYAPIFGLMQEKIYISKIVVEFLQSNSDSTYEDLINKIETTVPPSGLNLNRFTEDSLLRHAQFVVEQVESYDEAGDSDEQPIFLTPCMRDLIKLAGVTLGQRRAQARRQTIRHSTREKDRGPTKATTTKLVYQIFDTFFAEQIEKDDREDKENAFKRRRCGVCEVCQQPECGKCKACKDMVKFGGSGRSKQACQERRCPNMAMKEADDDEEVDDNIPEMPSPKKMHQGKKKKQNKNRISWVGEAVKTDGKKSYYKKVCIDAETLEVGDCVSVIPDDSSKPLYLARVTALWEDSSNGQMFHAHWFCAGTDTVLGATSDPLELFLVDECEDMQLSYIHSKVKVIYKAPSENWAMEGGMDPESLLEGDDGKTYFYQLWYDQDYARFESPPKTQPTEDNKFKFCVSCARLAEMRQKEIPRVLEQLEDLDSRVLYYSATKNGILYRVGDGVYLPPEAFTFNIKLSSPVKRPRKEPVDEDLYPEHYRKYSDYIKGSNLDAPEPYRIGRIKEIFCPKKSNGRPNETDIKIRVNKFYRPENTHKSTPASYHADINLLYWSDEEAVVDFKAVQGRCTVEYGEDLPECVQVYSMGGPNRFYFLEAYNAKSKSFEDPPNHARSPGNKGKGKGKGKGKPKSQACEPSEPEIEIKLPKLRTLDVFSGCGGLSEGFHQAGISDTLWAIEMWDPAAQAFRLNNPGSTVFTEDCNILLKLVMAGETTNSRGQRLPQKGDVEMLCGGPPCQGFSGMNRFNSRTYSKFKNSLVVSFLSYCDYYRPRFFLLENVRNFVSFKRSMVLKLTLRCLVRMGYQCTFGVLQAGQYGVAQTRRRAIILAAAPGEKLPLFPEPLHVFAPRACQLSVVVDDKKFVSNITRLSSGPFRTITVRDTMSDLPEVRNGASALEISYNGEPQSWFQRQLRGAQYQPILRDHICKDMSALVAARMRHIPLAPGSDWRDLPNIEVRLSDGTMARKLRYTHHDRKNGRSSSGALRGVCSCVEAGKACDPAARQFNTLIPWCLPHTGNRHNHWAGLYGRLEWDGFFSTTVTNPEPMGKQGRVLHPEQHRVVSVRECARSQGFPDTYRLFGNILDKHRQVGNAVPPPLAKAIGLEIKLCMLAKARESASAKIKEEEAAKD
- Measurement Description: Inhibition of full length His-tagged human DNMT1 using SAM/[methyl-3H]SAM assessed as reduction of methylation in biotinylated hemimethylated DNA duplex after 1 hr by scintillation counting method
Measurement Label: pEC50
Notebook: values listed as pEC50 are -log10 of the concentration (mol/L).

> print(dat)
                            smiles.notation  measurement.label  assay.value
1  c1ccc2c(CCCNc3ncnc4cc(OCC5CCN(CCNc6ccnc7ccccc67)CC5)ccc34)cccc2c1              pEC50         4.80

QUERY: Reported pEC50 for DNA (cytosine-5)-methyltransferase 1 (Homo sapiens, UniProt P26358), given Cc1cc(NCCN2CCC(COc3ccc4c(NCCCc5ccccc5)ncnc4c3)CC2)c2ccccc2n1 ?
RESULT: 4.62

QUERY: Reported pEC50 for DNA (cytosine-5)-methyltransferase 1 (Homo sapiens, UniProt P26358), given Clc1ccc(CCNc2ncnc3cc(OCC4CCN(CCNc5ccnc6ccccc56)CC4)ccc23)cc1 ?
RESULT: 4.59

QUERY: Reported pEC50 for DNA (cytosine-5)-methyltransferase 1 (Homo sapiens, UniProt P26358), given c1ccc(NCCNc2ncnc3cc(OCC4CCN(CCNc5ccnc6ccccc56)CC4)ccc23)cc1 ?
RESULT: 4.14

QUERY: Reported pEC50 for DNA (cytosine-5)-methyltransferase 1 (Homo sapiens, UniProt P26358), given c1ccc(CCNc2ncnc3cc(OCC4CCN(CCNc5ccnc6ccccc56)CC4)ccc23)cc1 ?
RESULT: 4.49

QUERY: Reported pEC50 for DNA (cytosine-5)-methyltransferase 1 (Homo sapiens, UniProt P26358), given c1ccc(-c2ccc(CNc3ncnc4cc(OCC5CCN(CCNc6ccnc7ccccc67)CC5)ccc34)cc2)cc1 ?
RESULT: 4.00

----------
Measured inhibition by item
- Target Or System: DNA (cytosine-5)-methyltransferase 3A (Homo sapiens, UniProt Q9Y6K1)
- Measurement Description: Inhibition of human DNMT3A catalytic domain using AdoMet assessed as reduction of methylation in 5'-biotin/3' 6-carboxyfluorescein labeled DNA duplex at CpG site at 10 uM after 1 hr by fluorescence assay relative to control

QUERY: Reported inhibition for DNA (cytosine-5)-methyltransferase 3A (Homo sapiens, UniProt Q9Y6K1), given c1ccc(CCCNc2ncnc3cc(OCCN4CCN(CCNc5ccnc6ccccc56)CC4)ccc23)cc1 ?
RESULT: 37%

QUERY: Reported inhibition for DNA (cytosine-5)-methyltransferase 3A (Homo sapiens, UniProt Q9Y6K1), given COCn1ccc(NCCN2CCC(COc3ccc4c(NCCCc5ccccc5)ncnc4c3)CC2)nc1=O ?
RESULT: 10%

QUERY: Reported inhibition for DNA (cytosine-5)-methyltransferase 3A (Homo sapiens, UniProt Q9Y6K1), given c1ccc(CCCNc2ncnc3cc(OCC4CCN(CCNc5cnc6ccccc6c5)CC4)ccc23)cc1 ?
RESULT: 38%

QUERY: Reported inhibition for DNA (cytosine-5)-methyltransferase 3A (Homo sapiens, UniProt Q9Y6K1), given c1ccc(CCCNc2ncnc3cc(OCC4CCN(CCNc5ccncc5)CC4)ccc23)cc1 ?
RESULT: 47%

QUERY: Reported inhibition for DNA (cytosine-5)-methyltransferase 3A (Homo sapiens, UniProt Q9Y6K1), given c1ccc(CCCNc2ncnc3cc(OCC4CCN(CCNc5cccc6ccccc56)CC4)ccc23)cc1 ?
RESULT: 0%

QUERY: Reported inhibition for DNA (cytosine-5)-methyltransferase 3A (Homo sapiens, UniProt Q9Y6K1), given O=c1c2ccc(OCC3CCN(CCNc4ccnc5ccccc45)CC3)cc2ncn1CCCc1ccccc1 ?
RESULT: 65%

QUERY: Reported inhibition for DNA (cytosine-5)-methyltransferase 3A (Homo sapiens, UniProt Q9Y6K1), given Nc1ncnc2cc(OCC3CCN(CCNc4ccnc5ccccc45)CC3)ccc12 ?
RESULT: 16%

QUERY: Reported inhibition for DNA (cytosine-5)-methyltransferase 3A (Homo sapiens, UniProt Q9Y6K1), given O=[N+]([O-])c1ccc(CCNc2ncnc3cc(OCC4CCN(CCNc5ccnc6ccccc56)CC4)ccc23)cc1 ?
RESULT: 54%

QUERY: Reported inhibition for DNA (cytosine-5)-methyltransferase 3A (Homo sapiens, UniProt Q9Y6K1), given c1ccc(CNc2ncnc3cc(OCC4CCN(CCNc5ccnc6ccccc56)CC4)ccc23)cc1 ?
RESULT: 43%

----------
Measured inhibition by item
- Target Or System: DNA (cytosine-5)-methyltransferase 1 (Homo sapiens)
- Measurement Description: Inhibition of full length His-tagged human DNMT1 using SAM/[methyl-3H]SAM assessed as reduction of methylation in biotinylated hemimethylated DNA duplex at 32 uM after 1 hr by scintillation counting method relative to control
Dear colleague, please return just the value in %, with no unit written.

Example cases with answers are listed next.
> print(dat)
                            smiles.notation                          target.or.system  measurement.label  assay.value
1  COc1ccc(CCNc2ncnc3cc(OCC4CCN(CCNc5ccnc6ccccc56)CC4)ccc23)cc1  DNA (cytosine-5)-methyltransferase 1 (Homo sapiens)         inhibition           82
2  FC(F)(F)c1cc(NCCN2CCC(COc3ccc4c(NCCCc5ccccc5)ncnc4c3)CC2)c2ccccc2n1  DNA (cytosine-5)-methyltransferase 1 (Homo sapiens)         inhibition            0
3  Nc1ccc(NCCN2CCC(COc3ccc4c(NCCCc5ccccc5)ncnc4c3)CC2)cc1  DNA (cytosine-5)-methyltransferase 1 (Homo sapiens)         inhibition            0
4  CN(C)c1ccc(NCCN2CCC(COc3ccc4c(NCCCc5ccccc5)ncnc4c3)CC2)c2ccccc12  DNA (cytosine-5)-methyltransferase 1 (Homo sapiens)         inhibition            8
5  Fc1ccc2nccc(NCCN3CCC(COc4ccc5c(NCCCc6ccccc6)ncnc5c4)CC3)c2c1  DNA (cytosine-5)-methyltransferase 1 (Homo sapiens)         inhibition            0
6  Cc1cc(NCCN2CCC(COc3ccc4c(NCCCc5ccccc5)ncnc4c3)CC2)c2ccccc2n1  DNA (cytosine-5)-methyltransferase 1 (Homo sapiens)         inhibition           83

QUERY: Look up inhibition for this compound: c1ccc(CCCNc2ncnc3cc(OCC4CCN(CCNc5ccnc6ccccc56)CC4)ccc23)cc1
RESULT: 25

QUERY: Look up inhibition for this compound: Clc1ccccc1CCNc1ncnc2cc(OCC3CCN(CCNc4ccnc5ccccc45)CC3)ccc12
RESULT: 42

QUERY: Look up inhibition for this compound: COCn1ccc(NCCNCCCOc2ccc3c(NCCCc4ccccc4)ncnc3c2)nc1=O
RESULT: 0
